Origin of the recorded values: patent US10214492B2

target: UniProt P53985; test: Assay 4: MCT1-mediated lactate transport in BT20 breast cancer cells; format: cell-based; conditions: Table 27
Sequence (P53985 whole entry): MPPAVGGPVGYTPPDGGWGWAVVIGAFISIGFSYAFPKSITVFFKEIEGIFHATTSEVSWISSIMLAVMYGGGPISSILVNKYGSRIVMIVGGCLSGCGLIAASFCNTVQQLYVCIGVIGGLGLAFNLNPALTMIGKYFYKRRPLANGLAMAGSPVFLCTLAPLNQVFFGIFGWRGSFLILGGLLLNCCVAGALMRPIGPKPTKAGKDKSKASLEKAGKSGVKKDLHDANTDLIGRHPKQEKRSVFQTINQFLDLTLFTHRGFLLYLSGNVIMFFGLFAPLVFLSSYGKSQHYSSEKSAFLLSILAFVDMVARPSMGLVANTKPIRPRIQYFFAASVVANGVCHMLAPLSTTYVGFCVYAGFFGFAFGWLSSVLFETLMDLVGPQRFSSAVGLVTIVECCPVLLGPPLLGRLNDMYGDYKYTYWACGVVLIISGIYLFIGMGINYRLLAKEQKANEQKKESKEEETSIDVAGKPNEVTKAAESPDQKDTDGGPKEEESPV
Sequence (P35613 140-385 partner): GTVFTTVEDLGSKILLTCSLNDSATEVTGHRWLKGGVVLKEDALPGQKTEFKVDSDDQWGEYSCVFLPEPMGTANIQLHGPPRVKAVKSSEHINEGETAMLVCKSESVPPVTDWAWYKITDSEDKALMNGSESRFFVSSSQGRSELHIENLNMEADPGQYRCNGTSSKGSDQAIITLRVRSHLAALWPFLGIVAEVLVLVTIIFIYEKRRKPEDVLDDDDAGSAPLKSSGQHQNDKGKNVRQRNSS
REPORTED PROPERTY: IC50 (nM)

The cases that follow already have their IC50 on record.
MOLECULE: COc1cccc(-c2cc(COC(C)(C)C(=O)O)nn2Cc2ccccc2OC(C)C)c1
OUTPUT UNIT: nM
IC50: 16000

MOLECULE: CC(C)(C)COc1cccc(-c2cc(COC(C)(C)C(=O)O)nn2-c2cccc3cccnc23)c1
OUTPUT UNIT: nM
IC50: 55000

MOLECULE: CC[C@](C)(OCc1cc(-c2cccc(OC)c2)n(Cc2ccccc2Cl)n1)C(=O)O [Example 218]
OUTPUT UNIT: nM
IC50: 22000

MOLECULE: Cn1ncc2cc(-c3cc(COC(C)(C)C(=O)O)nn3Cc3ccccc3Cl)ccc21
OUTPUT UNIT: nM
IC50: 95000

MOLECULE: CCOc1ccccc1-n1nc(COC(C)(C)C(=O)O)cc1-c1cccc(OC2CC2)c1
OUTPUT UNIT: nM
IC50: 63000

a = CC(C)(OCc1cc(-c2cccc(OC3CC3)c2)n(-c2cc(Cl)ccc2Cl)n1)C(=O)O
b = CCOc1cc(OCC)cc(-c2cc(COC(C)(C)C(=O)O)nn2-c2ccccc2C)c1
Task: Input pair: a , b . Output: entry with lower IC50. Returns: label corresponding to the selected item.
Output: a
(a: 17000 nM, b: 34000 nM)

A = CCn1ncc2ccc(-c3cc(CO[C@@](C)(CC)C(=O)O)nn3Cc3ccccc3Cl)cc21
B = COc1ccccc1-n1nc(COC(C)(C)C(=O)O)cc1-c1cccc(OCC(C)C)c1
Task: Compare A and B by numeric IC50 and name the larger one. Lab log: write the label of the selected item as the result.
Output: B

P = Cn1ncc2cccc(-n3nc(COC(C)(C)C(=O)O)cc3-c3cccc(OC4CCC4)c3)c21
Q = COc1cccc(-c2cc(/C=C/C(C)(C)C(=O)O)nn2Cc2ccccc2Cl)c1
Task: Hi! Which is lower in terms of IC50, the first one P or the second one Q ? Use the label to indicate which entry you chose.
Output: Q
(Q: 3300 nM, P: 53000 nM)

====

test: Metabolic stability in human liver microsomes (in vitro t1/2); type: in vitro ADME; settings: human liver microsomes, 60 min
REPORTED PROPERTY: Human microsome % 60 min (%)

SMILES REPR: CCn1ncc2ccc(-c3cc(COC(C)(C)C(=O)O)nn3-c3ccccc3N3CCC3)cc21
Human microsome % 60 min / %: 71
//
SMILES REPR: COc1cc(-c2cc(COC(C)(C)C(=O)O)nn2Cc2ccccc2Cl)cs1
Human microsome % 60 min / %: 73
//
SMILES REPR: CC(C)COc1ncc(-c2cc(COC(C)(C)C(=O)O)nn2Cc2ccccc2Cl)s1
Human microsome % 60 min / %: 70
//
SMILES REPR: COc1ccc(-c2cc(COC(C)(C)C(=O)O)nn2Cc2ccccc2Cl)s1
Human microsome % 60 min / %: 82
//
SMILES REPR: COc1cccc(-c2cc(COC(C)(C)C(=O)O)nn2Cc2ccccc2N(C)C)c1
Human microsome % 60 min / %: 56
//
SMILES REPR: CC(C)(OCc1cc(-c2cccc(OCC3CCC3)c2)n(-c2ccccc2Cl)n1)C(=O)O
Human microsome % 60 min / %: 66
//
SMILES REPR: Cn1ncc2cccc(-n3nc(COC(C)(C)C(=O)O)cc3-c3cccc(OCC(C)(C)C)c3)c21
Human microsome % 60 min / %: 84
//
SMILES REPR: COc1csc(-c2cc(COC(C)(C)C(=O)O)nn2Cc2ccccc2Cl)c1
Human microsome % 60 min / %: 78
//
SMILES REPR: Cn1ncc2ccc(-c3cc(COC(C)(C)C(=O)O)nn3Cc3ccccc3Cl)cc21
Human microsome % 60 min / %: 95
//
SMILES REPR: CC(C)Oc1cccc(-c2cc(COC(C)(C)C(=O)O)nn2Cc2ccccc2Cl)c1
Human microsome % 60 min / %: 67
//
SMILES REPR: CCOc1ccccc1Cn1nc(COC(C)(C)C(=O)O)cc1-c1ccc2cnn(CC)c2c1
Human microsome % 60 min / %: 80
//
SMILES REPR: COc1cccc(-c2cc(COC(C)(C)C(=O)O)nn2-c2ccccc2Cl)c1
Human microsome % 60 min / %: 80
//
SMILES REPR: Cn1ncc2cccc(-n3nc(COC(C)(C)C(=O)O)cc3-c3cccc(OC4CCC4)c3)c21
Human microsome % 60 min / %: 94
//
SMILES REPR: CCOc1ccccc1Cn1nc(COC(C)(C)C(=O)O)cc1-c1cc(Cl)cc(OC)c1
Human microsome % 60 min / %: 62
//
SMILES REPR: CCn1ncc2ccc(-c3cc(COC(C)(C)C(=O)O)nn3-c3ccccc3N3CCCC3)cc21
Human microsome % 60 min / %: 64
//
SMILES REPR: COc1cccc(-c2c(C)c(COC(C)(C)C(=O)O)nn2Cc2ccccc2Cl)c1
Human microsome % 60 min / %: 59
//
SMILES REPR: CCn1ncc2ccc(-c3cc(COC(C)(C)C(=O)O)nn3-c3ccccc3Cl)cc21
Human microsome % 60 min / %: 78

====

test: Metabolic stability in rat liver microsomes (in vitro t1/2); format: in vitro ADME; conditions: rat liver microsomes 0.5 mg/mL, 2 μM compound; read-out: Rat microsome t1/2, min
REPORTED PROPERTY: half-life at 2 µM (h)

SMILES REPR: CC(C)Oc1ncc(-c2cc(COC(C)(C)C(=O)O)nn2Cc2ccccc2Cl)s1
REPORTED PROPERTY: half-life at 2 µM
OUTPUT UNIT: h
VALUE MEASURED: 6.73

1 = CC(C)COc1ncc(-c2cc(COC(C)(C)C(=O)O)nn2Cc2ccccc2Cl)s1
2 = Cn1ncc2ccc(-c3cc(COC(C)(C)C(=O)O)nn3Cc3ccccc3Cl)cc21
Task: Hey, which is lower on measured half-life at 2 µM, 1 or 2 ? Reply with the label of the item you choose.
Output: 1
(1: 1.87 h, 2: 7.58 h)

====

target: UniProtKB O15427; assay: Assay 3: MCT4-mediated lactate transport in MDA-MB-231 breast cancer cells; assay type: cell-based; details: MDA-MB-231 cells; lactate transport
Sequence (O15427 whole entry, looked up): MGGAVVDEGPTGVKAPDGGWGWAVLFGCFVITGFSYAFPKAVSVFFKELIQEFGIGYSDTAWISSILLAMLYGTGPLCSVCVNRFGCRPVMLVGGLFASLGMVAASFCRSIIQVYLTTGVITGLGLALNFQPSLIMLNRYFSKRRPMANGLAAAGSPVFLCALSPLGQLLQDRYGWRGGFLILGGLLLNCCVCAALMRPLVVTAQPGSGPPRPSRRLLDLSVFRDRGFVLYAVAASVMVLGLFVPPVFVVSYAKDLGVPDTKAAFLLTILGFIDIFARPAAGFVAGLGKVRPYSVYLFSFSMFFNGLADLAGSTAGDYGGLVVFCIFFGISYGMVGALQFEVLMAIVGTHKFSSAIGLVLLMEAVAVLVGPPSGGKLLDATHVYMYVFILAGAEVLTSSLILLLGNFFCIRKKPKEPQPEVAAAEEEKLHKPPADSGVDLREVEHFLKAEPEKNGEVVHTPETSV
Sequence (P35613 whole entry partner, looked up): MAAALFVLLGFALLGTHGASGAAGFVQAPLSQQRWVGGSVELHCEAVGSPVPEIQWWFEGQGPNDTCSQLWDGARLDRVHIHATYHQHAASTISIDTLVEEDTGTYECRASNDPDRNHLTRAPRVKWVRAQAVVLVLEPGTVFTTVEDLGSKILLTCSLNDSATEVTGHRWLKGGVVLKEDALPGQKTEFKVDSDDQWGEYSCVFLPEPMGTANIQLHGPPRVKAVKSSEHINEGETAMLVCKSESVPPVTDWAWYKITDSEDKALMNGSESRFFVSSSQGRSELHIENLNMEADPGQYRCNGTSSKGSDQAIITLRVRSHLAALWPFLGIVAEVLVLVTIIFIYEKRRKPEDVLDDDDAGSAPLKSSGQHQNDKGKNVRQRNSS
REPORTED PROPERTY: IC50 (nM)

// worked examples, IC50 included
SMILES REPR: CC(C)COc1cccc(-c2cc(COC(C)(C)C(=O)O)nn2-c2ccccc2Cl)c1
ASSAYED TARGET: UniProtKB O15427
REPORTED PROPERTY: IC50
VALUE MEASURED: 3.4
//
SMILES REPR: COc1cc(OC)cc(-c2cc(COC(C)(C)C(=O)O)nn2Cc2ccccc2Cl)c1
ASSAYED TARGET: UniProtKB O15427
REPORTED PROPERTY: IC50
VALUE MEASURED: 4.1
//
SMILES REPR: CC(C)COc1cccc(-c2cc(COC(C)(C)C(=O)O)nn2-c2ccccc2)c1
ASSAYED TARGET: UniProtKB O15427
REPORTED PROPERTY: IC50
VALUE MEASURED: 20

a = Cn1nnc2cccc(-n3nc(COC(C)(C)C(=O)O)cc3-c3cccc(OCC(C)(C)C)c3)c21
b = CCn1ncc2ccc(-c3cc(COC(C)(C)C(=O)O)nn3-c3ccccc3N(C)C)cc21
Task: Looking only at measured IC50, which entry is lower, a or b ? Record your answer as the label of the chosen record.
Output: b

====

test: Metabolic stability in human liver microsomes (in vitro t1/2); assay type: in vitro ADME; settings: human liver microsomes 0.5 mg/mL, 2 μM compound; read-out: Human microsome t1/2, min
REPORTED PROPERTY: half-life at 2 µM (h)

Known results for compounds:
COMPOUND: COc1ccc(-c2cc(COC(C)(C)C(=O)O)nn2Cc2ccccc2Cl)s1
half-life at 2 µM (h): 3.33

COMPOUND: Cn1ncc2ccc(-c3cc(COC(C)(C)C(=O)O)nn3Cc3ccccc3Cl)cc21
half-life at 2 µM (h): 7.8

COMPOUND: CCn1ncc2ccc(-c3cc(COC(C)(C)C(=O)O)nn3-c3ccccc3Cl)cc21
half-life at 2 µM (h): 2.48

a = COc1cc(OC)cc(-c2cc(COC(C)(C)C(=O)O)nn2-c2ccccc2N2CCC2)c1
b = Cn1ncc2cccc(-n3nc(COC(C)(C)C(=O)O)cc3-c3cccc(OC4CCC4)c3)c21
Task: # return whichever of a and b has the smaller half-life at 2 µM Kindly state the label of the option you pick.
Output: a

A = Cc1ccccc1-n1nc(COC(C)(C)C(=O)O)cc1-c1cccc(OC2CCC2)c1
B = COc1cccc(-c2cc(COC(C)(C)C(=O)O)nn2Cc2ccccc2N(C)C)c1
C = CC(C)(C)COc1cccc(-c2cc(COC(C)(C)C(=O)O)nn2-c2ccccc2N2CCC2)c1
Task: Put these in order: smallest half-life at 2 µM first, largest last. In plain terms: list the labels in the order you were asked to.
Output: C, B, A

P = CC[C@@](C)(OCc1cc(-c2cccc(OC)c2)n(Cc2ccccc2Cl)n1)C(=O)O
Q = Cn1ncc2cccc(-n3nc(COC(C)(C)C(=O)O)cc3-c3cccc(OC4CC4)c3)c21
R = CC(C)(OCc1cc(-c2cccc(OC3CC3)c2)n(Cc2ccccc2Cl)n1)C(=O)O
S = CC(C)(OCc1cc(-c2cccc(OC3CC3)c2)n(Cc2ccccc2N2CCCC2)n1)C(=O)O
T = CC(C)(OCc1cc(-c2cccc(OC3CC3)c2)n(-c2ccccc2N2CCCC2)n1)C(=O)O
Task: I would appreciate it if you could sort these 5 compounds by half-life at 2 µM, starting from the smallest number. Please express your ranking as an ordered list of the labels.
Output: S, T, P, R, Q
(S: 0.617 h, T: 1.13 h, P: 3.3 h, R: 6.33 h, Q: 23.4 h)

1 = CC(C)(C)COc1cccc(-c2cc(COC(C)(C)C(=O)O)nn2-c2ccccc2Cl)c1
2 = CCOc1cc(OCC)cc(-c2cc(COC(C)(C)C(=O)O)nn2-c2ccccc2Cl)c1
Task: // max by half-life at 2 µM over [ 1 , 2 ] Answer = label.
Output: 2

I = CC(C)(OCc1cc(-c2cccc(OC3CCC3)c2)n(-c2ccccc2Cl)n1)C(=O)O
II = CCC(C)(OCc1cc(-c2cccc(OC)c2)n(Cc2ccccc2Cl)n1)C(=O)O (stereo not shown)
Task: Which value of half-life at 2 µM is smaller, the one for I or the one for II ? State the label of the item chosen.
Output: I

1 = COc1cccc(-c2c(C)c(COC(C)(C)C(=O)O)nn2Cc2ccccc2Cl)c1
2 = CCn1ncc2ccc(-c3cc(CO[C@@](C)(CC)C(=O)O)nn3Cc3ccccc3Cl)cc21
Task: Quick one: lower half-life at 2 µM, 1 or 2 ? Label of pick, please.
Output: 1

A = COc1cc(OC)cc(-c2cc(COC(C)(C)C(=O)O)nn2Cc2ccccc2Cl)c1
B = COc1csc(-c2cc(COC(C)(C)C(=O)O)nn2Cc2ccccc2Cl)c1
C = CCCn1ncc2ccc(-c3cc(COC(C)(C)C(=O)O)nn3-c3ccccc3N3CCC3)cc21
Task: Order by half-life at 2 µM, ascending. Your reply should list the labels following the order given in the request.
Output: C, B, A
(C: 1.58 h, B: 2.33 h, A: 12.3 h)

1 = CC(C)(OCc1cc(-c2cccc(OCC3CCC3)c2)n(-c2ccccc2Cl)n1)C(=O)O
2 = CC(C)(OCc1cc(-c2cccc(OC3CC3)c2)n(-c2ccccc2Cl)n1)C(=O)O
Task: // which entry has the larger half-life at 2 µM value, 1 or 2 ? Select an item and report its label.
Output: 2
